Tested on: LoVo
experimentSummary: Cytotoxicity against human LoVo cells after 72 hrs by MTT assay
Assay type: functional, cell-based
readout: IC50 (nM)
Enter your answer as a number in nM; do not include the unit.

Query: IC50 lookup needed for `O=C(CBr)NC(=O)Nc1cccc(NC(=O)CBr)c1` , thanks.
Result: 1990
